Organism: Rattus norvegicus
Test: Open TG-GATES - Regimen: Daily Repeat
Type: toxicity, organism-based, Sprague-Dawley
Parameters: regimen Daily Repeat, gender Male, age 6 weeks
Settings: in vivo, po, 0 mg/kg, […], tissue Blood, route gavage, dose level Control, time 28 day
Assay endpoint: Bas (%)
Return type: number; implicit unit %.

What measured Bas goes with CN1C(C(=O)Nc2ccccn2)=C(O)c2sc(Cl)cc2S1(=O)=O [LORNOXICAM] ? 0.6

Name the reported Bas value associated with the compound Cc1cccc(Nc2ccccc2C(=O)O)c1C [MEFENAMIC ACID] 0

Reported Bas for C#C[C@]1(O)CC[C@H]2[C@@H]3CCC4=Cc5oncc5C[C@]4(C)[C@H]3CC[C@@]21C [DANAZOL] : what is it? 0

Dear colleague, I am looking for the recorded Bas of the following compound: C1CCC(C(CC2CCCCN2)C2CCCCC2)CC1 (stereo not given) [PERHEXILINE] 0

What measured Bas goes with Clc1c(Cl)c(Cl)c(Cl)c(Cl)c1Cl [PERCHLOROBENZENE] ? 0
